Test system: A549/ATCC NSCLC
METHOD NOTES: NCI-60 one-dose screen, 48 h
ASSAY CONDITIONS: 10 µM unless noted
Method: Growth inhibition of the A549/ATCC human Non-Small Cell Lung tumor cell line is measured as a screen for anti-cancer activity. Cells are grown in 96 well plates and exposed to the test compound for 48 hours. Compounds are tested at a single concentration, which is 10^-5 M for most compounds. The reported endpoint is percent growth (GI% or GIPRCNT), where numbers from 0 - 100% represent growth inhibition, and numbers from -100% - 0 represent cell death. […]
Compounds without any hit were thinned out: in the full panel of roughly 83,000, 20% have a hit. Calls of active or inactive are those of the source. How the source made its calls: active means growth percent below 10; inactive means the rest.
Respond using exactly one of the listed classes: active, inactive

[
  {
    "COMPOUND": "Cc1nc2cc(Nc3nc(N4CCCCC4)nc(N4CCOCC4)n3)ccc2n1Cc1ccccc1",
    "LABEL VALUE": "active"
  }
]

## Input Field: outcome | Entry: CCCOC(=O)c1ccc2c(c1)[N+](=O)C(C(=O)c1ccccc1)=C(C(F)(F)F)[N+]2=O
## Output active

## Input Name the outcome recorded for COc1ccc(OC)c(C2C(C#N)=C(N)Oc3cc(O)ccc32)c1 (stereo not given) in the assay.
## Output inactive

## Input Record request — test call for COc1ccc(/C=C(\C#N)c2ccc(OC)cc2)cc1
## Output inactive

## Input Query: recorded result category for COC(=O)c1c2c(c(C)[n+]([O-])c1C)C(=O)C=C(NCc1ccc(F)c(Cl)c1)C2=O in this test
## Output active

## Input Which outcome was assigned to FC(F)(F)Oc1ccc2c(c1)C[C@H]1C[C@@H](c3ccoc3)N2O1 in this test?
## Output inactive

## Input Recorded test outcome, item Cc1ccc(-c2c3c(N)c4c(nc3nc3c2c(C)nn3-c2ccccc2)CCCC4)cc1
## Output inactive

## Input What did the test return for CCCCc1ccc(C(O)(CCN2CC3CCC(CC3)C2)c2ccccc2)cc1 (stereo not given) ?
## Output inactive

## Input Would you mind telling me which call this test gave COc1ccc(-c2nc3sccn3c2/C=C/C(=O)c2cc(OC)c(OC)c(OC)c2)cc1OC ?
## Output inactive

## Input For O=C1c2ccccc2C(=O)c2c(Nc3ccc(CCO)cc3)ccc(O)c21 , which call appears in the assay record?
## Output inactive

## Input In this assay, the call recorded for CCOC(=O)c1c(Cl)c2c(n1Cc1ccc(OC)cc1)-c1oncc1CCC2 was what?
## Output inactive

---

Test system: UACC-62 melanoma
METHOD NOTES: NCI-60 one-dose screen, 48 h (100 = growth as untreated, 0 = no growth, -100 = all killed)
ASSAY CONDITIONS: 10 µM unless noted
This is part of a sample that, as a whole, favours compounds with a hit. Of some 83,000 tested, about 20% had one in any assay.
TEST READOUT: growth (%)
Report as a plain number; the unit % is understood.

Solved entries:
[
  {
    "COMPOUND": "COc1ccc(-c2nc3sc(C)nn3c2-c2nc3cc(C)c(C)cc3[nH]2)cc1",
    "UNIT OF MEASUREMENT": "%",
    "growth": 88.5
  },
  {
    "COMPOUND": "CCCCc1ccc(C(O)(CCN2CC3CCC(CC3)C2)c2ccccc2)cc1 (stereo not given)",
    "UNIT OF MEASUREMENT": "%",
    "growth": 108
  },
  {
    "COMPOUND": "Cc1cc(=O)c2c(C)ccc(C)c2[nH]1",
    "UNIT OF MEASUREMENT": "%",
    "growth": 96.4
  },
  {
    "COMPOUND": "N#C/C(=C\\c1ccc[nH]1)c1cc2ccccc2[nH]1",
    "UNIT OF MEASUREMENT": "%",
    "growth": 67.8
  },
  {
    "COMPOUND": "CCCCC(=O)N/N=C/c1cc(I)cc(I)c1O",
    "UNIT OF MEASUREMENT": "%",
    "growth": 38.8
  },
  {
    "COMPOUND": "COc1ccc(CSc2nc3cc(OC)c(OC)cc3c(=O)n2-c2ccc(Cl)cc2)cc1",
    "UNIT OF MEASUREMENT": "%",
    "growth": 99.4
  },
  {
    "COMPOUND": "O=C(CCc1nnc2sc(-c3ccccc3)nn12)c1nc2ccccc2[nH]1",
    "UNIT OF MEASUREMENT": "%",
    "growth": 102
  },
  {
    "COMPOUND": "Cn1cc(C(=O)NCCC(=N)N)cc1NC(=O)CN=C(N)N",
    "UNIT OF MEASUREMENT": "%",
    "growth": 98
  },
  {
    "COMPOUND": "FC(F)(F)c1cc(CNc2ncc(Br)c(Cl)n2)cc(C(F)(F)F)c1",
    "UNIT OF MEASUREMENT": "%",
    "growth": 103
  },
  {
    "COMPOUND": "COc1ncnc2c1ncn2C/C(Br)=C(\\Br)CCl",
    "UNIT OF MEASUREMENT": "%",
    "growth": 57.3
  }
]

## Input GET /values?readout=growth&item= COc1ccc(C2OCC(C)(C)CO2)cc1OC
## Output 99.9

## Input Would you mind telling me what growth value was observed for Brc1ccc(SCN(CSc2ccc(Br)cc2)Cc2ccccc2)cc1 ?
## Output 92
